- Test Name: logP by HPLC (EEC Directive 79/831 Annex V. A8, gradient method)
- Assay type: physicochemical
- Measurement Context: HPLC, gradient method, acetonitrile/0.1% aqueous phosphoric acid; Table 1
Classify by measured logP: rule met if it is equal to or exceeds 2, rule not met if it is smaller.

* O=S1(=O)CSC(Oc2ccc(SC(F)(F)F)cc2)=N1 | rule met
* N#CCc1ccccc1OC1=NS(=O)(=O)CS1 | rule not met
* CON=C(C1=NOCCO1)c1ccccc1OC1=NS(=O)(=O)CS1 | rule not met
* Cc1ccc(C)c(OC2=NS(=O)(=O)CS2)c1 | rule met
* CC(=NOCc1ccccc1)c1cccc(OC2=NS(=O)(=O)CS2)c1 | rule met
* O=S1(=O)CSC(Oc2cccc(C(=NOCc3ccccc3)c3ccccc3)c2)=N1 | rule met
* COc1ccc(C(=O)c2ccc(OC3=NS(=O)(=O)CS3)cc2)cc1 | rule met
* CCON=C(C)c1ccc(OC2=NS(=O)(=O)CS2)c(C)c1 | rule met
* O=S1(=O)CSC(Oc2cccc(C(F)(F)F)c2)=N1 | rule met
* O=C(Cc1ccccc1)c1ccc(OC2=NS(=O)(=O)CS2)cc1 | rule met
* Cc1cnc(Sc2ccc(OC3=NS(=O)(=O)CS3)cc2)nc1C | rule met
* COC(=O)c1ccc(N=Cc2ccc(OC3=NS(=O)(=O)CS3)cc2)cc1 | rule not met
* Cc1nc(Sc2ccc(OC3=NS(=O)(=O)CS3)cc2)sc1C | rule met
* CCS(=O)(=O)c1ccc(OC2=NS(=O)(=O)CS2)cc1 | rule not met
* N#Cc1cccc(OC2=NS(=O)(=O)CS2)c1 | rule not met
* O=[N+]([O-])c1ccc(C=Cc2cccc(OC3=NS(=O)(=O)CS3)c2)c([N+](=O)[O-])c1 (mixture of isomers) | rule met
* O=S1(=O)CSC(Oc2ccc(N=Nc3ccccc3)cc2OC2=NS(=O)(=O)CS2)=N1 | rule met
* O=S1(=O)CSC(Oc2ccc(S(=O)(=O)c3ccc(Cl)cc3)cc2)=N1 | rule met
* O=S1(=O)CSC(Oc2cccc(OCCO)c2)=N1 | rule not met
* O=S1(=O)CSC(Oc2ccc(OC3=NS(=O)(=O)CS3)cc2)=N1 | rule not met
* COc1cc(OC2=NS(=O)(=O)CS2)ccc1C(C)=O | rule not met
* CCCCCC(O)c1cccc(OC2=NS(=O)(=O)CS2)c1 (racemic) | rule met
* O=S1(=O)CSC(Oc2ccccc2C(F)(F)F)=N1 | rule met
* CC(C)Oc1ccccc1OC1=NS(=O)(=O)CS1 | rule met
* CC(=Cc1cccc(OC2=NS(=O)(=O)CS2)c1)[N+](=O)[O-] (mixture of isomers) | rule met
* Cc1cc(OC2=NS(=O)(=O)CS2)cc(C)c1SC#N | rule met
* O=S1(=O)CSC(Oc2cccc(OC(F)(F)F)c2)=N1 | rule met
* CC(C)n1nc(-c2ccc(OC3=NS(=O)(=O)CS3)cc2)ccc1=O | rule met
* COc1cc(Cl)cc(OC2=NS(=O)(=O)CS2)c1 | rule met
* COC(=O)c1ccc(N=Cc2cccc(OC3=NS(=O)(=O)CS3)c2)cc1 | rule not met
* O=[N+]([O-])c1ccc(Oc2ccc(OC3=NS(=O)(=O)CS3)cc2)c(Cl)c1 | rule met
* O=[N+]([O-])c1ccc(Sc2ccc(OC3=NS(=O)(=O)CS3)cc2)cc1 | rule met
